Study Target: mMC3R (Mus musculus)
Sequence (P33033 whole entry): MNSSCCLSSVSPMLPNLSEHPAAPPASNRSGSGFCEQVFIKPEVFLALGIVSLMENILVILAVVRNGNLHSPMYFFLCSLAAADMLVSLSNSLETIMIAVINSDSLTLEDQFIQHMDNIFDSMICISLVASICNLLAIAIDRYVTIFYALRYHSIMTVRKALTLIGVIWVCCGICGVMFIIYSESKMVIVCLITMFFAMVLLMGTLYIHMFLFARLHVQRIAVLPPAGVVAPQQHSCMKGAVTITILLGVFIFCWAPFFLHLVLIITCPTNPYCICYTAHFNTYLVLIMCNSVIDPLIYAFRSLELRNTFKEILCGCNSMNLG
Measurement Notes: β-galactosidase cAMP reporter assay, agonist pharmacology in HEK293 cells stably expressing mMC3R
Test Settings: β-galactosidase cAMP, HEK293; mean ± SEM; apparent EC50 for partial agonists
pEC50: −log10 of the molar value. Non-standard residues stand in square brackets, D forms with d. Residues, ends and D or L forms follow the SMILES beside them. dPhe(4-tBu) = CC(C)(C)c1ccc(C[C@@H](N)C(=O)O)cc1; dPhe(3,4-Cl2) = N[C@H](Cc1ccc(Cl)c(Cl)c1)C(=O)O; dPhe(4-CN) = N#Cc1ccc(C[C@@H](N)C(=O)O)cc1; dBip = N[C@H](Cc1ccc(-c2ccccc2)cc1)C(=O)O; dPhe(4-F) = N[C@H](Cc1ccc(F)cc1)C(=O)O; Tic = O=C(O)[C@@H]1Cc2ccccc2CN1
Each record gets a class by pEC50: Low = under 6, Medium = from 6 up to 7, High = 7 and over

[
  {
    "Molecule": "CC(=O)N[C@@H](Cc1c[nH]cn1)C(=O)N[C@@H](CCCNC(=N)N)C(=O)N[C@H](Cc1ccc(-c2ccccc2)cc1)C(=O)N1Cc2ccccc2C[C@H]1C(N)=O [KNS2-23-1, Ac-His-Arg-DBip-Tic-NH2] (Ac-HR[dBip][Tic]-NH2)",
    "Discrete Label": "High"
  },
  {
    "Molecule": "CC(=O)N[C@@H](Cc1c[nH]cn1)C(=O)N[C@@H](CCCNC(=N)N)C(=O)N[C@H](Cc1ccc(C#N)cc1)C(=O)N1Cc2ccccc2C[C@H]1C(N)=O [KNS2-23-8, Ac-His-Arg-(pCN)DPhe-Tic-NH2] (Ac-HR[dPhe(4-CN)][Tic]-NH2)",
    "Discrete Label": "Low"
  },
  {
    "Molecule": "CC(=O)N[C@@H](Cc1c[nH]cn1)C(=O)N[C@@H](CCCNC(=N)N)C(=O)N[C@H](Cc1ccc(F)cc1)C(=O)N1Cc2ccccc2C[C@H]1C(N)=O [KNS2-22-2, Ac-His-Arg-(pF)DPhe-Tic-NH2] (Ac-HR[dPhe(4-F)][Tic]-NH2)",
    "Discrete Label": "Medium"
  },
  {
    "Molecule": "CC(=O)N[C@@H](Cc1c[nH]cn1)C(=O)N[C@@H](CCCNC(=N)N)C(=O)N[C@H](Cc1ccc(O)cc1)C(=O)N1Cc2ccccc2C[C@H]1C(N)=O [KNS2-23-9, Ac-His-Arg-DTyr-Tic-NH2] (Ac-HR[dY][Tic]-NH2)",
    "Discrete Label": "Low"
  },
  {
    "Molecule": "CC(=O)N[C@@H](Cc1c[nH]cn1)C(=O)N[C@@H](CCCNC(=N)N)C(=O)N[C@H](Cc1ccc(Cl)c(Cl)c1)C(=O)N1Cc2ccccc2C[C@H]1C(N)=O [KNS2-23-4, Ac-His-Arg-(3,4-diCl)DPhe-Tic-NH2] (Ac-HR[dPhe(3,4-Cl2)][Tic]-NH2)",
    "Discrete Label": "Medium"
  },
  {
    "Molecule": "CC(=O)N[C@@H](Cc1c[nH]cn1)C(=O)N[C@@H](CCCNC(=N)N)C(=O)N[C@H](Cc1ccc(C(C)(C)C)cc1)C(=O)N1Cc2ccccc2C[C@H]1C(N)=O [KNS2-23-3, Ac-His-Arg-(ptBu)DPhe-Tic-NH2] (Ac-HR[dPhe(4-tBu)][Tic]-NH2)",
    "Discrete Label": "High"
  }
]
